All values here come from patent US20250340591A1.

# experimentalTarget: GPR39 (Homo sapiens, UniProt O43194)
# Sequence (O43194 1-453): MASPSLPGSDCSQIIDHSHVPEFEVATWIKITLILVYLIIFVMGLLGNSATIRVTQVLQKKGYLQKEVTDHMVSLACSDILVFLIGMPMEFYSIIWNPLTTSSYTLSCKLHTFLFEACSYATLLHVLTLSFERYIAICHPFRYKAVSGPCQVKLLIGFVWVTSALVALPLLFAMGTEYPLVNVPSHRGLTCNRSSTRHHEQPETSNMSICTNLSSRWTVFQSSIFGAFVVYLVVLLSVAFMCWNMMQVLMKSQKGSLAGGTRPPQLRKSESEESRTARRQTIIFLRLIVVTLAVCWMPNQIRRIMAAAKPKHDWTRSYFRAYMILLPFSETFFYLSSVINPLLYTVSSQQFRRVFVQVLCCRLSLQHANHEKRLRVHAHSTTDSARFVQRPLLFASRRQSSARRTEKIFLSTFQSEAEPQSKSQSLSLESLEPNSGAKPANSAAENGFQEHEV
# assayProcedure: luciferase assay system (SRE luciferase reporter gene, CV-1 cells expressing GPR39)
# Format: cell-based
# Set-up: expressed in transfected cells; host or cells: CV-1 fibroblast cell line (Korea Cell Line Bank), adenoviral transduction at 50 MOI
Square brackets hold non-standard residues; d marks the D form. Peptide text beside a SMILES is read from it. * marks the point of attachment. His(Trt) = N[C@@H](Cc1cn(C(c2ccccc2)(c2ccccc2)c2ccccc2)cn1)C(=O)O; dHis(Trt) = N[C@H](Cc1cn(C(c2ccccc2)(c2ccccc2)c2ccccc2)cn1)C(=O)O; His(τ-CHPh2) = N[C@@H](Cc1cn(C(c2ccccc2)c2ccccc2)cn1)C(=O)O; Tyr(3-NH2) = Nc1cc(C[C@H](N)C(=O)O)ccc1O; dPhe(4-Cl) = N[C@H](Cc1ccc(Cl)cc1)C(=O)O; dPhe(4-Me) = Cc1ccc(C[C@@H](N)C(=O)O)cc1; dPhe(4-F) = N[C@H](Cc1ccc(F)cc1)C(=O)O; Octanoyl = CCCCCCCC(=O)*; Boc = CC(C)(C)OC(=O)*
propertyMeasured: ECmax (−fold induction over basal)
Answer in fold induction over basal, number only, no unit symbol.

1. CCCCCCCC(=O)NCCCC[C@H](NC(=O)[C@H](Cc1c[nH]c2ccccc12)NC(=O)OC(C)(C)C)C(=O)N[C@H](Cc1ccc(C)cc1)C(=O)N[C@@H](Cc1ccc(O)cc1)C(=O)O [HKFY-78] (Boc-WK(Octanoyl)[dPhe(4-Me)]Y-OH) :: 11.4
2. CCCCCCCC(=O)NCCCC[C@H](NC(=O)[C@@H](N)Cc1cn(CCc2ccccc2)cn1)C(=O)N[C@@H](Cc1ccccc1)C(=O)N[C@@H](Cc1ccc(O)cc1)C(=O)O [HKFY-9] :: 21
3. CCCCCCCC(=O)NCCCC[C@H](NC(=O)[C@@H](N)Cc1cn(C(c2ccccc2)(c2ccccc2)c2ccccc2)cn1)C(=O)N[C@H](Cc1ccc(F)cc1)C(=O)N[C@@H](Cc1ccc(O)cc1)C(=O)O [HKFY-28] (H-[His(Trt)]K(Octanoyl)[dPhe(4-F)]Y-OH) :: 22.95
4. CCCCCCCC(=O)NCCCC[C@H](NC(=O)[C@@H](N)Cc1cn(-c2ccc(C(C)(C)C)cc2)cn1)C(=O)N[C@H](Cc1ccc(C)cc1)C(=O)N[C@@H](Cc1ccc(O)cc1)C(=O)O [HKFY-61] :: 9.88
5. CCCCCCCC(=O)NCCCC[C@H](NC(=O)[C@H](N)Cc1cn(C(c2ccccc2)(c2ccccc2)c2ccccc2)cn1)C(=O)N[C@H](Cc1ccc(C)cc1)C(=O)N[C@@H](Cc1ccc(O)cc1)C(=O)O [HKFY-31] (H-[dHis(Trt)]K(Octanoyl)[dPhe(4-Me)]Y-OH) :: 20.9

Lab note: CCCCCCCC(=O)NCCCC[C@H](NC(=O)[C@@H](N)Cc1cn(C(c2ccccc2)(c2ccccc2)c2ccccc2)cn1)C(=O)N[C@@H](Cc1ccccc1)C(=O)O [HKFY-49] (H-[His(Trt)]-Lys(Octanoyl)-Phe-OH) gave ECmax (−fold induction over basal) of 18.3

Lab note: CCCCCCCC(=O)NCCCC[C@@H](NC(=O)[C@@H](N)Cc1cn(C(c2ccccc2)(c2ccccc2)c2ccccc2)cn1)C(=O)N[C@H](Cc1ccc(Cl)cc1)C(=O)N[C@@H](Cc1ccc(O)cc1)C(=O)O [HKFY-16] (H-[His(Trt)][dK](Octanoyl)[dPhe(4-Cl)]Y-OH) gave ECmax (−fold induction over basal) of 27.9

Lab note: CCCCCCCC(=O)NCCCC[C@H](NC(=O)[C@@H](N)Cc1cn(C(c2ccccc2)c2ccc(O)cc2)cn1)C(=O)N[C@H](Cc1ccc(C)cc1)C(=O)N[C@@H](Cc1ccc(O)cc1)C(=O)O (stereo partly drawn) [HKFY-65] gave ECmax (−fold induction over basal) of 18.3

Lab note: CCCCCCCC(=O)NCCCC[C@H](NC(=O)[C@@H](N)Cc1cn(C(c2ccccc2)c2ccccc2)cn1)C(=O)N[C@H](Cc1ccc(C)cc1)C(=O)N[C@@H](Cc1ccc(O)c(N)c1)C(=O)O [HKFY-70] (H-[His(τ-CHPh2)]K(Octanoyl)[dPhe(4-Me)][Tyr(3-NH2)]-OH) gave ECmax (−fold induction over basal) of 10.1
